Hi there, I'd appreciate the recorded TGI for every entry that follows.
system: HCT-15 colon; assay: NCI tumour cell line growth inhibition, 48 h

IN: Write down measured TGI (HCT-15 colon) for this compound. `Brc1ccc2c(c1)-c1nc3c(cc1CC2)CCc1ccc(Br)cc1-3`
OUT: > 100 µM

IN: Write down measured TGI (HCT-15 colon) for this compound. COP(=O)(CC(=O)C1OC(OCc2ccccc2)C(OCc2ccccc2)C(OCc2ccccc2)C1OCc1ccccc1)OC (centres undefined)
OUT: > 100 µM

IN: Write down measured TGI (HCT-15 colon) for this compound. COc1ccc(C(=O)C(C(=O)CCC(=O)Nc2cccc(C(F)(F)F)c2)c2ccccc2)cc1 (centres undefined)
OUT: > 100 µM

IN: Write down measured TGI (HCT-15 colon) for this compound. `Oc1c2c(c(O)c3ccccc13)=N[C@@H](c1ccccc1)[C@H](c1ccccc1)N=2`
OUT: > 100 µM

IN: Write down measured TGI (HCT-15 colon) for this compound. `CNC(=O)c1cc(Oc2ccc(NC(=O)Nc3ccc(Cl)c(OC(F)(F)F)c3)c(F)c2)ccn1`
OUT: 18 µM

IN: Write down measured TGI (HCT-15 colon) for this compound. `COc1cc2c(cc1O)CC[n+]1cc3c(OC)c(OC)ccc3cc1-2`
OUT: > 100 µM

IN: Write down measured TGI (HCT-15 colon) for this compound. C[C@@H]1C(=O)CC2(O)[C@@]13C[C@@H](OC(=O)[C@@H]3O)[C@@H](C)[C@@]21COC1=O (some centres undefined)
OUT: > 100 µM

IN: Write down measured TGI (HCT-15 colon) for this compound. `CN1CCN(Cc2ccc(NC(=O)c3ccc(C(C)(C)C)c(C#Cc4cnc5cccnn45)c3)cc2C(F)(F)F)CC1`
OUT: 2.66 µM

IN: Write down measured TGI (HCT-15 colon) for this compound. CCOC(=O)C1=C(C)NC(=O)N([N+](=O)[O-])C1c1ccccc1C(F)(F)F (centres undefined)
OUT: > 100 µM

---

tested on: BT-549 breast; experiment: NCI tumour cell line growth inhibition, 48 h
measured-quantity: GI50

IN: Give recorded GI50. COc1ccc(C2C(C#N)=C(N)OC3=C2CCCc2ccc(F)cc23)cc1OC (stereo not given)
OUT: 19.4 µM

IN: Give recorded GI50. `NCCN1CCN(c2nccc(-c3ccc4ccccc4c3)n2)CC1`
OUT: 4.89 µM

IN: Give recorded GI50. `Clc1ccc(OCc2nnc3n2N=C(c2ccc(Cl)cc2Cl)CS3)c(Cl)c1`
OUT: 22.4 µM

IN: Give recorded GI50. `COc1ccc(NC2=C(Br)C(=O)C(C)=C(C)C2=O)cc1`
OUT: 11.8 µM

IN: Give recorded GI50. `C=CC(=O)Nc1cccc(Nc2nc(Nc3ccc(OCCOC)cc3)ncc2F)c1`
OUT: 0.718 µM

IN: Give recorded GI50. `CCCCCC(=O)Oc1ccc(/C(=C(\C)c2ccc(OC)cc2)c2ccc(OCCN3CCCCC3)cc2)cc1`
OUT: 10.7 µM

IN: Give recorded GI50. `O=C(Nc1cc(-c2ccccc2)[nH]n1)c1ccc(Cl)cc1`
OUT: > 100 µM

IN: Give recorded GI50. `C=CCOc1c(Br)cc(Br)cc1Br`
OUT: 35.5 µM

IN: Give recorded GI50. `CNc1nc(NC2CCCC2)nc(Sc2ccc(OC)cc2)n1`
OUT: > 10 µM

IN: Give recorded GI50. `O=C1c2ccccc2-c2c1c1ccccc1c(=O)n2CCNCCCNCCn1c2c(c3ccccc3c1=O)C(=O)c1ccccc1-2`
OUT: 0.629 µM
